Data credit: ChEMBL document CHEMBL4418259

Below, each entry is listed alongside its reported inhibition.
- target of assay: Taste receptor type 2 member 39 (Homo sapiens)
- Sequence (whole entry): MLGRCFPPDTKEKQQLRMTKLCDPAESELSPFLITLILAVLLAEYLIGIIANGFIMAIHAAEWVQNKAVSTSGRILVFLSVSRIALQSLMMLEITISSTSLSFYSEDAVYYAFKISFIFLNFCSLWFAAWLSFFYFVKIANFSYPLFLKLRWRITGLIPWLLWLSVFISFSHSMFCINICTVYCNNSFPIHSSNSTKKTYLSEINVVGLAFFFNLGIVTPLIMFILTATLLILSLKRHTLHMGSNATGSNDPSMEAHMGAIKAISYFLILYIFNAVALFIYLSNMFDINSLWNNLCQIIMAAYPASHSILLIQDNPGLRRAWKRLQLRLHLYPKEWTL
- protocol details: Inhibition of human TAS2R39 expressed in HEK293 cells coexpressing G-protein at 10 mM assessed as reduction in epicatechin gallate-induced intracellular calcium release by Fluo-4-AM dye based fluorescence assay relative to control
- Type: functional, cell-based
Write it as a number; the unit % goes unstated.

Reference set (3 entries):
- smiles string: "COc1ccc(CCC(=O)O)cc1"
  inhibition, %: 40
- smiles string: "COc1cc(CCC(=O)O)cc(OC)c1OC"
  inhibition, %: 35
- smiles string: "O=C(O)c1ccc(O)cc1"
  inhibition, %: 25

Next:
Note to self: inhibition recorded for COc1ccc(CCC(=O)O)cc1OC was 35

====

- target of assay: Taste receptor type 2 member 39 (Homo sapiens)
- protocol details: Inhibition of human TAS2R39 expressed in HEK293 cells coexpressing G-protein at 10 mM assessed as reduction in epicatechin gallate-induced intracellular calcium release by Fluo-4-AM dye based fluorescence assay relative to control
- Assay type: functional, cell-based
Output: class label from inhibition. Mapping: lower band = under 20%, central band = from 20% up to 40%, upper band = 40% and over

As a guide, the following entries are already answered.
- smiles string: "O=C(O)/C=C/c1ccc(O)c(O)c1"
  class name: "central band"
- smiles string: "COc1cccc(C(=O)O)c1"
  class name: "lower band"
- smiles string: "COc1cccc(/C=C/C(=O)O)c1"
  class name: "lower band"
- smiles string: "COc1cc(/C=C/C(=O)O)cc(OC)c1O"
  class name: "upper band"
- smiles string: "COc1ccc(CC(=O)O)cc1"
  class name: "lower band"

Now turn to the next compound.
// query Dear colleague, I would appreciate it if you could identify the bin for COc1ccc(C(=O)O)cc1 and reply at your convenience.
// result lower band

====

- target of assay: Taste receptor type 2 member 39 (Homo sapiens) (UniProt P59534)
- protocol details: Inhibition of human TAS2R39 expressed in HEK293 cells coexpressing G-protein at 10 mM assessed as reduction in epicatechin gallate-induced intracellular calcium release by Fluo-4-AM dye based fluorescence assay relative to control
- Format: functional, cell-based
measured parameter: inhibition (%)
Write it as a number; the unit % goes unstated.

Reference set (9 entries):
- smiles string: "O=C(O)/C=C/c1ccccc1"
  units label: "%"
  inhibition: 40
- smiles string: "O=C(O)c1ccc(O)c(O)c1"
  units label: "%"
  inhibition: 15
- smiles string: "O=C(O)CCc1ccc(O)c(O)c1"
  units label: "%"
  inhibition: 30
- smiles string: "COc1cccc(C(=O)O)c1O"
  units label: "%"
  inhibition: 25
- smiles string: "O=C(O)c1ccccc1"
  units label: "%"
  inhibition: 20
- smiles string: "COc1ccc(/C=C/C(=O)O)cc1"
  units label: "%"
  inhibition: 30
- smiles string: "COc1cc(/C=C/C(=O)O)ccc1O"
  units label: "%"
  inhibition: 65
- smiles string: "O=C(O)Cc1ccc(O)c(O)c1"
  units label: "%"
  inhibition: 15
- smiles string: "COc1cc(C(=O)O)cc(OC)c1OC"
  units label: "%"
  inhibition: 20

Next:
Note to self: inhibition recorded for O=C(O)Cc1ccccc1 was 5

====

- target of assay: Taste receptor type 2 member 39 (Homo sapiens)
- protocol details: Inhibition of human TAS2R39 expressed in HEK293 cells coexpressing G-protein at 10 mM assessed as reduction in epicatechin gallate-induced intracellular calcium release by Fluo-4-AM dye based fluorescence assay relative to control
- Assay type: functional, cell-based
Below, each entry is listed alongside its reported inhibition.
Write it as a number; the unit % goes unstated.

Reference set (2 entries):
- smiles string: "O=C(O)CCCc1ccccc1"
  inhibition (%): 40
- smiles string: "COc1cc(/C=C/C(=O)O)cc(OC)c1"
  inhibition (%): 20

Note to self: inhibition recorded for O=C(O)CCc1ccc(O)cc1 was 25

Note to self: inhibition recorded for COc1cc(CC(=O)O)cc(OC)c1OC was 25

Note to self: inhibition recorded for O=C(O)CCc1ccccc1 was 15

Note to self: inhibition recorded for COc1cc(CCC(=O)O)ccc1O was 35

Note to self: inhibition recorded for O=C(O)c1cc(O)c(O)c(O)c1 was 25

Note to self: inhibition recorded for O=C(O)/C=C/c1ccc(O)cc1 was 40

Note to self: inhibition recorded for COc1cc(/C=C/C(=O)O)cc(OC)c1OC was 70
